target.or.test.system: T1, human PCSK9 (human, UniProt Q8NBP7 31-692, limits assumed)
T1 construct: also called hPCSK9; huPCSK9
T1 sequence (Q8NBP7 31-692 limits assumed): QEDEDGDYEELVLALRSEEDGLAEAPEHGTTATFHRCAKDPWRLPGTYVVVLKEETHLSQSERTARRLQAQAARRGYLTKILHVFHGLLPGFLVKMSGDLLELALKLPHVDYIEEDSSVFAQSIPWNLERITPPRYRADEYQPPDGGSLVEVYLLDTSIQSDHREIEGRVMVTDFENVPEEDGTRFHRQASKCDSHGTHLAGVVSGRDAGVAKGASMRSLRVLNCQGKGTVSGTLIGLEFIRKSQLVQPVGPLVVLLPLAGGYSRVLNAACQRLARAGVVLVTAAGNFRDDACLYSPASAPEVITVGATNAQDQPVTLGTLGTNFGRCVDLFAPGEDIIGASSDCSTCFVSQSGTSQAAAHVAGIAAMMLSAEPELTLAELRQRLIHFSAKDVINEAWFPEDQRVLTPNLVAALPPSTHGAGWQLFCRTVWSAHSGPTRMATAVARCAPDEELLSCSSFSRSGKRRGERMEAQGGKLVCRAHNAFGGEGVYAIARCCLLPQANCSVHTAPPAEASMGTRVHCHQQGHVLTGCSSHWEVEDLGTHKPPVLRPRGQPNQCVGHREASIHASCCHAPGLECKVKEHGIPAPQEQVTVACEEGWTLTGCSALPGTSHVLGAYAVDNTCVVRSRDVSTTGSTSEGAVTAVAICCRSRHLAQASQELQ
protocol.description: SPR Biacore 3000, captured IgG, hPCSK9 injected, pH 7.4
Method: These antibodies were expressed and purified for determination of their KD at 7.4 and their KD ratio of pH5.5/pH 7.4, as measured on a surface plasmon resonance Biacore 3000 biosensor equipped with a research-grade sensor chip using HBS-EP running buffer (Biacore AB, Uppsala, Sweden—now GE Healthcare). […] Dissociation was monitored for 5 min. […]
Threshold check on kon: at or above 50000 M⁻¹ s⁻¹ gives rule met, strictly below gives rule not met.

These solved cases illustrate the format of a correct answer.
binder	group.label
6L21H2335 (antibody, V domains shown) VH: QVQLVQSGAEVKKPGASVKVSCKASGYTFTSYYMHWVRQAPGQGLEWMGEIHPFGGRTNYNEKFKSRVTMTRDTSTSTVYMELSSLRSEDTAVYYCARERPLHASDLWGQGTTVTVSS VL: DIQMTQSPSSLSASVGDRVTITCRASQGISSALAWYQQKPGKAPKLLIYHASYRYTGVPSRFSGSGSGTDFTFTISSLQPEDIATYYCQQRYSLWRTFGQGTKLEIK	rule met
5L1724H23_6L3H3 (antibody, V domains shown, Only CDRs printed; Full-length IgG) VH: QVQLVQSGAEVKKPGASVKVSCKASGYTFTSYYMHWVRQAPGQGLEWMGEIHPSGGRTNYNEKFKSRVTMTRDTSTSTVYMELSSLRSEDTAVYYCARERPLYASDLWGQGTTVTVSS VL: DIQMTQSPSSLSASVGDRVTITCKASQDVHTAVAWYQQKPGKAPKLLIYSASHRYTGVPSRFSGSGSGTDFTFTISSLQPEDIATYYCQQRYSLWRTFGQGTKLEIK	rule not met
5L1721H23_6L3 (antibody, V domains shown, Tested as full-length IgG; also called heavy UC-H5H23, light UC-H5L1721-6L3) VH: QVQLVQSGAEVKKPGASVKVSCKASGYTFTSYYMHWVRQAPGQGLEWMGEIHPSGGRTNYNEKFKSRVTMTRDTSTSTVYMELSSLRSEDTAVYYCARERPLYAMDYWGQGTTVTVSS VL: DIQMTQSPSSLSASVGDRVTITCKASQDVHTAVAWYQQKPGKAPKLLIYHASYRYTGVPSRFSGSGSGTDFTFTISSLQPEDIATYYCQQRYSLWRTFGQGTKLEIK	rule not met

Would you say 5L1721H23_6H3 (antibody, V domains shown, Only CDRs printed; Full-length IgG) VH: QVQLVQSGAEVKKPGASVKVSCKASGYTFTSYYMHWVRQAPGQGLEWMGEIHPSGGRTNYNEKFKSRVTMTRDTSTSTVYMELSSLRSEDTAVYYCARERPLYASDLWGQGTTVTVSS VL: DIQMTQSPSSLSASVGDRVTITCKASQDVHTAVAWYQQKPGKAPKLLIYHASYRYTGVPSRFSGSGSGTDFTFTISSLQPEDIATYYCQQRYSTPRTFGQGTKLEIK shows kon at minimum 50000 M⁻¹ s⁻¹? rule not met
